experiment: in vitro; settings: African green monkey
pIC50: −log10 of the molar value.
OBSERVABLE: pIC50

{"COMPOUND": "CCc1nc(N)nc(N)c1-c1ccc(Cl)cc1 [Pyr, pyrimethamine, reference compound]", "RESULT_OPERATOR": "<", "VALUE": 4.00}
{"COMPOUND": "CCc1nc(N)nc(N)c1OCCCOc1cccc(-c2c(N)nc(N)nc2CC)c1", "RESULT_OPERATOR": "=", "VALUE": 5.23}
{"COMPOUND": "CCc1nc(N)nc(N)c1-c1ccc(OCCCOc2ccc(-c3c(N)nc(N)nc3CC)cc2)cc1", "RESULT_OPERATOR": "=", "VALUE": 5.60}
{"COMPOUND": "Cc1nc(N)nc(N)c1OCCCOc1cc(Cl)c(Cl)cc1Cl [P65, reference compound]", "RESULT_OPERATOR": "=", "VALUE": 5.39}
{"COMPOUND": "CCc1nc(N)nc(N)c1OCCCOc1ccc(-c2c(N)nc(N)nc2CC)cc1", "RESULT_OPERATOR": "=", "VALUE": 5.20}

Cited source for all entries: paper PMC6295868
